// each record: one item and its MIC for Klebsiella pneumoniae
Reply with just the number (in µg/mL).

O=C(Nc1nccs1)c1cc(N=Nc2nccs2)ccc1O :: 200
O=C(O)c1cc(N=Nc2nccs2)ccc1O :: 80
O=C(Nc1nc2ccccc2s1)c1cc(N=Nc2nccs2)ccc1O :: 80

Next up:
Report MIC on Klebsiella pneumoniae for this entry: CC[C@H]1OC(=O)[C@H](C)[C@@H](O[C@H]2C[C@@](C)(OC)[C@@H](O)[C@H](C)O2)[C@H](C)[C@@H](O[C@@H]2O[C@H](C)C[C@H](N(C)C)[C@H]2O)[C@](C)(O)C[C@@H](C)CN(C)[C@H](C)[C@@H](O)[C@]1(C)O [azithromycin, reference compound]
60

----------
Reported zone of inhibition at 1000 µg/mL by item:
test system: Klebsiella pneumoniae; assay: Disk diffusion inhibition zones; format: cell-based; settings: 24 h
Reply with just the number (in mm).

The following molecules have reported results that may help.
O=C(Nc1nccs1)c1cc(N=Nc2nccs2)ccc1O :: 13
CC[C@H]1OC(=O)[C@H](C)[C@@H](O[C@H]2C[C@@](C)(OC)[C@@H](O)[C@H](C)O2)[C@H](C)[C@@H](O[C@@H]2O[C@H](C)C[C@H](N(C)C)[C@H]2O)[C@](C)(O)C[C@@H](C)CN(C)[C@H](C)[C@@H](O)[C@]1(C)O [azithromycin, reference compound] :: 20
O=C(O)c1cc(N=Nc2nccs2)ccc1O :: 11
O=C(Nc1nc2ccccc2s1)c1cc(N=Nc2nccs2)ccc1O :: 14

Next up:
Complete the entry with zone of inhibition at 1000 µg/mL for `O=C(Nc1ccc(S(=O)(=O)c2nccs2)cc1)c1cc(N=Nc2nccs2)ccc1O`
12

----------
tested on: Staphylococcus epidermidis; test: Minimum inhibitory concentration, serial dilution; format: cell-based
OBSERVATION_TYPE: MIC
Quick note: number first, unit second.

The following compounds have reported results that may help.
CC[C@H]1OC(=O)[C@H](C)[C@@H](O[C@H]2C[C@@](C)(OC)[C@@H](O)[C@H](C)O2)[C@H](C)[C@@H](O[C@@H]2O[C@H](C)C[C@H](N(C)C)[C@H]2O)[C@](C)(O)C[C@@H](C)CN(C)[C@H](C)[C@@H](O)[C@]1(C)O [azithromycin, reference compound] :: 80 µg/mL
O=C(Nc1nccs1)c1cc(N=Nc2nccs2)ccc1O [Compound 3a] :: 80 µg/mL

Complete the entry with MIC for O=C(Nc1nc2ccccc2s1)c1cc(N=Nc2nccs2)ccc1O [Compound 3b]
10 µg/mL

Complete the entry with MIC for O=C(Nc1ccc(S(=O)(=O)c2nccs2)cc1)c1cc(N=Nc2nccs2)ccc1O [Compound 3c]
40 µg/mL

Complete the entry with MIC for O=C(O)c1cc(N=Nc2nccs2)ccc1O [Compound 3]
10 µg/mL
